Documented MIC across a set of compounds
system: C. difficile; assay: agar dilution MIC assay of anaerobic bacteria; format: cell-based, Clostridium difficile; settings: Clostridioides difficile, C. difficile, Micromyx Number 3586, Table 1; read-out: MIC
Could you give me the number in µg/mL? Just the number is fine.

Reference set (3 entries):
CC(C)C(=O)OCCCCCn1cnc2nc(NCc3ccc(Cl)c(Cl)c3)[nH]c(=O)c21 [Compound 332E] | 2
CCc1cc(Nc2cc(=O)n(CCCCO)c(=O)[nH]2)ccc1C [Compound 179E] | 4
Cc1ncc([N+](=O)[O-])n1CCO [metronidazole, reference compound] | 0.5

Here's the next entry for you.
MIC reported for this compound CCc1cc(Nc2nc3ncn(CCCCCOC)c3c(=O)[nH]2)ccc1C [Compound 315C] : 8

###

test system: C. difficile; assay: agar dilution MIC assay of anaerobic bacteria; type: cell-based, Clostridium difficile; details: Clostridioides difficile, C. diff. Strain no. 18285, Table 4; read-out: MIC
Documented MIC across a set of compounds
Could you give me the number in µg/mL? Just the number is fine.

Reference set (2 entries):
Cc1ncc([N+](=O)[O-])n1CCO [metronidazole, reference compound] | 2
O=c1[nH]c(NCc2ccc(Cl)c(Cl)c2)nc2ncn(CCCCCN3CCOCC3)c12 [Compound 359E] | 8

MIC reported for this compound O=c1[nH]c(NCc2ccc(Cl)c(Cl)c2)nc2ncn(CCCCN3CCOCC3)c12 [Compound 258D] : 8

MIC reported for this compound CN[C@H](CC(C)C)C(=O)N[C@H]1C(=O)N[C@@H](CC(N)=O)C(=O)N[C@H]2C(=O)N[C@H]3C(=O)N[C@H](C(=O)N[C@H](C(=O)O)c4cc(O)cc(O)c4-c4cc3ccc4O)[C@H](O)c3ccc(c(Cl)c3)Oc3cc2cc(c3O[C@@H]2O[C@H](CO)[C@@H](O)[C@H](O)[C@H]2O[C@H]2C[C@](C)(N)[C@H](O)[C@H](C)O2)Oc2ccc(cc2Cl)[C@H]1O [vancomycin, reference compound] : 1

###

System: C. difficile
Experiment: agar dilution MIC assay of anaerobic bacteria
Assay type: cell-based, Clostridium difficile
Conditions: Clostridioides difficile, C. diff., Strain no. 3587, Table 3; read-out: MIC
Method: Each compound was assayed against a panel of anaerobic bacteria in culture, consisting of Gram-positive organisms, such as Lactobacilli, Bifidobacteria, Clostridium spp., and Gram-negative bacteria, such as […] fragilis spp., according to guidelines of the Clinical and Laboratory Standards Institute (CLSI document M11-A7, CLSI, Wayne, Pa., 2007). […] The MIC in μg/ml was read per Clinical and Laboratory Standards Institute guidelines.
recorded.metric: MIC
Please answer in the form of a number followed by its unit of measurement.

Reference set (3 entries):
O=c1[nH]c(NCc2ccc(Cl)c(Cl)c2)nc2ncn(CCOCCN3CCOCC3)c12 [Compound 360A] | 8 µg/mL
Cl.O=c1cc(NCc2ccc(Cl)c(Cl)c2)[nH]c(=O)n1CCOCCN1CCOCC1 [Compound 240D] | 16 µg/mL
Cc1ncc([N+](=O)[O-])n1CCO [metronidazole, reference compound] | 1 µg/mL

MIC reported for this molecule O=c1[nH]c(NCc2ccc(Cl)c(Cl)c2)nc2ncn(CCCCCN3CCOCC3)c12 [Compound 359E] : 4 µg/mL

###

Tested on: C. difficile
Experiment: agar dilution MIC assay of anaerobic bacteria
Type: cell-based, Clostridium difficile
Conditions: Clostridioides difficile, C. diff., Strain no. 3580, Table 3; read-out: MIC
Description: Each compound was assayed against a panel of anaerobic bacteria in culture, consisting of Gram-positive organisms, such as Lactobacilli, Bifidobacteria, Clostridium spp., and Gram-negative bacteria, such as […] fragilis spp., according to guidelines of the Clinical and Laboratory Standards Institute (CLSI document M11-A7, CLSI, Wayne, Pa., 2007). […] The MIC in μg/ml was read per Clinical and Laboratory Standards Institute guidelines.
Documented MIC across a set of compounds
Could you give me the number in µg/mL? Just the number is fine.

O=c1[nH]c(NCc2ccc(Cl)c(Cl)c2)nc2ncn(CCOCCN3CCOCC3)c12 [Compound 360A] | 16
Cl.O=c1cc(NCc2ccc(Cl)c(Cl)c2)[nH]c(=O)n1CCOCCN1CCOCC1 [Compound 240D] | 32
O=c1[nH]c(NCc2ccc(Cl)c(Cl)c2)nc2ncn(CCCCCN3CCOCC3)c12 [Compound 359E] | 4

Here's the next entry for you.
MIC reported for this compound Cc1ncc([N+](=O)[O-])n1CCO [metronidazole, reference compound] : 1

// provenance: patent US8796292B2
